- assay-remarks: anti-His antibody binders, primary screen, artefact control for SMM control protein annotation, biochemical, small-molecule microarray, 635 nm fluorescence (AID 1128);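 also: score merges feature fluorescence with signal-to-noise for each printed compound spot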
- stated-conditions: anti-His Alexa647 antibody binding, higher = more signal
Categorize each record by its composite z-score using LOW = under 0.3, MEDIUM = from 0.3 up to 1, HIGH = 1 and over

molecule	group-label
C=C(COC)/C(=C/C[C@H](OC(C)=O)c1ccc(CO)o1)c1cc(C(=O)OC)ccc1OC	MEDIUM
C=C(CCCC)/C(=C/C[C@@H](OC(C)=O)c1ccc(OCCO)cc1)c1cnc2ccccc2c1	HIGH
C=CCNC(=O)[C@@H]1[C@H]2C(=O)O[C@H](c3ccccc3)[C@H](c3ccccc3)N2[C@H](c2ccc(OCCO)cc2)[C@@]12C(=O)Nc1ccc(C#CCC(C(=O)OC)C(=O)OC)cc12	HIGH
C=C(COC)C(=O)CC[C@@H](OC(C)=O)c1ccc(CO)o1	LOW
CC(C)C(=C=CC[C@@H](O)c1ccc(OCCO)cc1)C[C@@H](O)c1ccccn1	LOW

Could you tell me which band CN1C(=O)C2C=CC(C(O)C3CC=CCC3)N(N(c3ccccc3)c3ccccc3)C2C1=O (stereo not drawn) belongs to? LOW
